# assay info: label from the status in PepcDB records
test readout: protein production

MAALAIIQSLNTSSYPIDIQRLKPKKMPEEPGPARNKFRSDFIVEIALIVAVAVYLVMAQGQVVGENLSFTVTGAALMALATYWTLHTIRDGLEVIALRLRPGK
failed
MIEMLGIKIPLRKTTILPVLSFTLSSYFLTNFIFYLQYTDYTGLVEFLLIGAPFIGRAITPITYPFLMSRINIERITYLSLGNMAILDILEFFMGTDTLALILLRVATGILFGLATSAAVELATQSRSKIIMGMTMGGWALGWILSALMSFLMGKMVLITSSFSLVFFLLIKRSNIDKKLFSNSGSISIAFSWKALLIFLLGFEPAYILQLIPSLLGENNAIEETIIAYSISFIAYIILPSIGNIRISSLLTSLMIGILGFTSFITLKAWMFIPFTVLGLGLNSLLPIIIKLMKVEVTKIGPSMNLASLSGFLIPSLVSIGDIEINSAILTLISSISLGAIVYKNLKITA
failed
